Recorded values, source paper PMC5916898.

Target: T1, BBX (Homo sapiens, UniProt Q8WY36)
T1 sequence: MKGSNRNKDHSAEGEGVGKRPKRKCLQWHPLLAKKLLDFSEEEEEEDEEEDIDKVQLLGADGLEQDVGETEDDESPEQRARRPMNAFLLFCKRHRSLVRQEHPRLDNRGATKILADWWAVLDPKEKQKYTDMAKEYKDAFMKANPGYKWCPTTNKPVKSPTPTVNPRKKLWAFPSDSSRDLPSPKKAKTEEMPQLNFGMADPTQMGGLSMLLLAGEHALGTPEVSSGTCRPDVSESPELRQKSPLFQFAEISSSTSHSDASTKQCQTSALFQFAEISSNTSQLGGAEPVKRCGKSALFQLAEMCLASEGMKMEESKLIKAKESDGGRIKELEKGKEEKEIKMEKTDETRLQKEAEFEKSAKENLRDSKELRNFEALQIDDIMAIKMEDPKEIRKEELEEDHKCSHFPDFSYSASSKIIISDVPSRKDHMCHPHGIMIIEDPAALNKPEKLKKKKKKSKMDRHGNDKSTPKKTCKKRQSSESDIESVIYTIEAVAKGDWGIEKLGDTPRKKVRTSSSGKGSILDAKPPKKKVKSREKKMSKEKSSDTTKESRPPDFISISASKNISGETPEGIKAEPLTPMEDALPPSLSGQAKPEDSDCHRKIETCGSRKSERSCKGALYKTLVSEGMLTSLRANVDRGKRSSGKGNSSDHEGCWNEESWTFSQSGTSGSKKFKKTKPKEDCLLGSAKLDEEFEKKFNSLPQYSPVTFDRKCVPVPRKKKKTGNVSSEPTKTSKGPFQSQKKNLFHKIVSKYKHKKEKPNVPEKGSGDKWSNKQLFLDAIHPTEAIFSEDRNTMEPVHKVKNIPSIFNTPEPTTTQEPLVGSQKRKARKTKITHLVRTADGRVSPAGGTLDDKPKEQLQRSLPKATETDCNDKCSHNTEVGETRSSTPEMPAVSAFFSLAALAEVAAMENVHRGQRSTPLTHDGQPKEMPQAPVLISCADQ
Assay: pulldown; 150 mM NaCl, 50 mM Tris pH 8, 0.25% NP-40, 1 mM TCEP; 4 C, 2 h; 100 ug HeLa nuclear lysate
Conditions: protein: extract; label: 5' biotin (strand 1)
result.type: apparent K (half saturation) (nM)
Give the quantity in nM, number only.

Lookup result for TATA-box (dsDNA) DNA 1: GCGGCGCTCTATATAAGTGGGCAGTG DNA 2: CACTGCCCACTTATATAGAGCGCCGC ; measured apparent K (half saturation): 405

Measured apparent K (half saturation), CTCF (dsDNA) DNA 1: TCAGAGTGGCGGCCAGCAGGGGGCGCCCTTGCCAGA DNA 2: TCTGGCAAGGGCGCCCCCTGCTGGCCGCCACTCTGA : 308

Value of measured apparent K (half saturation) for the entry AP-1 (dsDNA) DNA 1: AGTCGGCTAGCTGACTCAGGATGTCC DNA 2: GGACATCCTGAGTCAGCTAGCCGACT : 308

Recorded result, TEAD (dsDNA) DNA 1: TCGGGACCCAGGCCTGGAATGTTTCCACC DNA 2: GGTGGAAACATTCCAGGCCTGGGTCCCGA , apparent K (half saturation): 390
